test_protocol: Plasma concentrations and pharmacokinetic parameters after topical ocular, subcutaneous and intravitreal administration
Type: in vivo, New Zealand White rabbits
settings: New Zealand White, rabbit, plasma, sc, 5 mg/kg, plasma; subcutaneous 5 mg/kg/dose, solution; read-out: AUClast (± SE)
Structures can show the parent of a compound that is named as a salt.

>  <compound>
COC(=O)N[C@@H](Cc1ccccc1)C(=O)N[C@@H](Cc1ccc(NS(=O)(=O)O)cc1)c1csc(-c2cccs2)n1 [Compound 1 sodium salt]

>  <result_units>
ng·h/mL

>  <AUC(0-t)>
1560

$$$$

* * *

test_protocol: Plasma concentrations and pharmacokinetic parameters after topical ocular, subcutaneous and intravitreal administration
Format: in vivo, New Zealand White rabbits
settings: New Zealand White, rabbit, plasma, subcutaneous, 5 mg/kg/dose, subcutaneous 5 mg/kg/dose, solution; 2.0 hr
Structures can show the parent of a compound that is named as a salt.
recorded_endpoint: concentration at 2 h (µg/mL)

>  <molecule>
COC(=O)N[C@@H](Cc1ccccc1)C(=O)N[C@@H](Cc1ccc(NS(=O)(=O)O)cc1)c1csc(-c2cccs2)n1 [Compound 1 sodium salt]

>  <recorded_endpoint>
concentration at 2 h

>  <result_units>
µg/mL

>  <measured_result>
0.18

$$$$
